- Assay name: chemical genetic growth profiling, strain panel (AID 1159580);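 further: tested at 20 µM; growth read once vehicle control cultures reached saturation at 30 °C; 1 = growth at the plate median or of vehicle wells; lower values mean less growth of the strain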
- Conditions used: S. cerevisiae deletion strains, growth OD, locus YLR102C, strain apc9, hits give low values
Among all 5,500 compounds or so, about 2,000 (36%) were called active. Not shown: some 18% with an inconclusive outcome. The list shows a part of the results.
# normalized growth listing for each entry below
Lab note: jot down the number only; don't add units.

Quick note, normalized growth for CC(C)CCCC(C)[C@H]1CCC2C3C(=O)C=C4C[C@@H](O)CC[C@]4(C)C3CC[C@@]21C (stereo partly drawn) landed at 1.03

Quick note, normalized growth for COc1cc(C(C)=O)cc(OC)c1O landed at 1

Quick note, normalized growth for C=C1c2cccc(O)c2C(O)=C2C(=O)[C@]3(O)C(O)=C(C(N)=O)C(=O)[C@@H](N(C)C)[C@@H]3[C@@H](O)[C@H]12 landed at 1

Quick note, normalized growth for CC(=O)c1cc(CC=C(C)C)c(O)c(CC=C(C)C)c1 landed at 0.964

Quick note, normalized growth for CN(C)c1ccc(O)c2c1C[C@H]1C[C@H]3[C@H](N(C)C)C(=O)C(C(N)=O)=C(O)[C@@]3(O)C(=O)C1=C2O landed at 0.989

Quick note, normalized growth for C=C1c2c(Cl)ccc(O)c2C(O)=C2C(=O)[C@]3(O)C(O)=C(C(N)=O)C(=O)[C@@H](N(C)C)[C@@H]3[C@@H](O)[C@H]12 landed at 0.986

Quick note, normalized growth for C[C@H]1c2cccc(O)c2C(O)=C2C(=O)[C@]3(O)C(O)=C(C(N)=O)C(=O)[C@@H](N(C)C)[C@@H]3[C@@H](O)[C@@H]21 landed at 0.968

Quick note, normalized growth for CC(=O)c1ccc(O)c(CC=C(C)C)c1 landed at 0.969

====

- Assay name: chemical genetic growth profiling, strain panel (AID 1159580)
- Conditions used: S. cerevisiae deletion strains, growth OD, locus YNL175C, strain NOP13, hits give low values
Screen size: about 5,500 compounds; about 2,000 (36%) were called active. Another 18% or so got no clear call; they are omitted. Some of the results follow.
Parameter measured: normalized growth
Lab note: jot down the number only; don't add units.

As a guide, the following entries are already answered.
1. Cc1cn[nH]c1 = 0.994
2. CC(=O)NNC(=O)N1Cc2ccccc2Oc2ccc(Cl)cc21 = 0.989
3. CN(C)CCCN1c2ccccc2CCc2ccccc21 = 1
4. CN(C)C1C(=O)C(C(N)=O)=C(O)C2(O)C(=O)C3=C(O)c4c(O)ccc(Cl)c4C(O)C3CC12 (configuration not stated) = 1.02
5. CN(C)CCCN1c2ccccc2Sc2ccc(Cl)cc21 = 0.967

Quick note, normalized growth for Cc1cccc(C)c1OCC(N)C(C)C (configuration not stated) landed at 1.02

Quick note, normalized growth for CN(C)CCCN1c2ccccc2Sc2ccccc21 landed at 0.983

====

# normalized growth listing for each entry below
- Assay name: chemical genetic growth profiling, strain panel (AID 1159580);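 further: tested at 20 µM; growth read once vehicle control cultures reached saturation at 30 °C; 1 = growth at the plate median or of vehicle wells; lower values mean less growth of the strain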
- Conditions used: S. cerevisiae deletion strains, growth OD, locus YML070W, strain DAK1, hits give low values
Among all 5,500 compounds or so, about 2,000 (36%) were called active. Another 18% or so got no clear call; they are omitted. The list shows a part of the results.
Lab note: jot down the number only; don't add units.

1) CC(=O)c1ccc(Cl)c(N=Cc2cc(Br)cc(Br)c2O)c1 = 0.099
2) CC(C)(C)c1cc(C(=O)NNc2cccc(Cl)c2)n(Cc2ccccc2)n1 = 0.887
3) CSc1sc(C(=O)Sc2ccccc2)cc1S(=O)(=O)C(C)C = 0.93
4) O=S(=O)(Nc1ccccc1Oc1ccccc1)c1ccc(-c2ccno2)s1 = 0.906
5) Cc1nn(-c2cccc(Cl)c2)c2oc(=O)cc(C(F)(F)F)c12 = 0.515
6) O=C(CSC1=NNC(c2ccccn2)S1)Nc1ccccc1 (stereo not drawn) = 0.966

Quick note, normalized growth for Cc1ccc2nc(-c3ccc4c(c3)OCCO4)cn2c1 landed at 0.938

Quick note, normalized growth for Clc1ccc(SCc2ccsc2-c2ncns2)cc1 landed at 0.963

Quick note, normalized growth for Cc1ccc(-c2csc(-c3ccncc3)n2)cc1 landed at 0.788

Quick note, normalized growth for CSc1n[nH]c(-c2cc(C(C)(C)C)oc2C)c1C#N landed at 0.879

Quick note, normalized growth for CC(=O)c1ccc(Cl)c(N=Cc2cc(Cl)cc(Cl)c2O)c1 landed at 0.184

Quick note, normalized growth for N/C(Cc1cccc2ccccc12)=N/OC(=O)c1ccc(Cl)cc1 landed at 0.892

Quick note, normalized growth for CCOC(=O)c1ccc(Cl)c(N=Cc2cc(Cl)cc(Cl)c2O)c1 landed at 0.389

Quick note, normalized growth for Cc1onc(-c2c(Cl)cccc2Cl)c1C(=O)O/N=C(/N)Cc1ccc(C(C)(C)C)cc1 landed at 0.99

Quick note, normalized growth for COC(=O)C1=C(Nc2ccccc2NS(=O)(=O)c2ccc(C(F)(F)F)cc2Cl)CSC1 landed at 0.928

Quick note, normalized growth for CCOC(=O)/C(C#N)=C(\Nc1ccc(C(=O)OCC)cc1)SC landed at 0.909

Quick note, normalized growth for Cc1ccc(-n2cccc2)c(NS(=O)(=O)c2ccc(-c3ccno3)s2)c1 landed at 0.905

Quick note, normalized growth for O=C(Nc1ccc(F)cc1F)c1cc(Cl)c(-n2cccc2)c(Cl)c1 landed at 0.925

====

- Assay name: chemical genetic growth profiling, strain panel (AID 1159580);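 further: tested at 20 µM; growth read once vehicle control cultures reached saturation at 30 °C; 1 = growth at the plate median or of vehicle wells; lower values mean less growth of the strain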
- Conditions used: S. cerevisiae deletion strains, growth OD, locus YJR043C, strain POL32, hits give low values
About 2,000 (36%) of roughly 5,500 compounds were called active. Not shown: some 18% with an inconclusive outcome. The list shows a part of the results.
# strict inequality: normalized growth < 1 yields TRUE, everything else yields FALSE

Below, 8 compounds whose answers are already recorded.
1) CC(=O)c1ccc(O)c(CC=C(C)C)c1 = TRUE
2) CC(C)CCCC(C)[C@H]1CCC2C3CC=C4CC(=O)CC[C@]4(C)C3CC[C@@]21C (stereo not given in full) = TRUE
3) CCC(C)[C@H]1O[C@]2(C=C[C@@H]1C)C[C@@H]1C[C@@H](C/C=C(\C)[C@@H](OC3C[C@H](OC)C(O[C@H]4C[C@H](OC)[C@@H](O)[C@H](C)O4)[C@H](C)O3)[C@@H](C)/C=C/C=C3\CO[C@@H]4[C@H](O)C(C)=C[C@@H](C(=O)O1)[C@]34O)O2 (stereo not given in full) = TRUE
4) CC12CCC(O)CC1CCC1C2[C@H](O)CC2(C)C(C3=CC(=O)OC3)CCC12O (stereo not given in full) = FALSE
5) NC(=O)NC(=O)Cc1ccccc1 = FALSE
6) O=C(OCc1ccccc1)c1ccccc1 = TRUE
7) C[C@H]1c2cccc(O)c2C(O)=C2C(=O)[C@]3(O)C(O)=C(C(N)=O)C(=O)[C@@H](N(C)C)[C@@H]3[C@@H](O)[C@@H]21 = TRUE
8) CC(C)CCCC(C)C1CCC2C3CC(=O)[C@H]4C[C@@H](O)CC[C@]4(C)C3CC[C@]12C (stereo not given in full) = FALSE

Could you now consider this next compound?
**Q:** Please determine if C=C1c2cccc(O)c2C(O)=C2C(=O)[C@]3(O)C(O)=C(C(N)=O)C(=O)[C@@H](N(C)C)[C@@H]3[C@@H](O)[C@H]12 is below 1 in terms of normalized growth.
**A:** TRUE

====

- Assay name: chemical genetic growth profiling, strain panel (AID 1159580);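 further: tested at 20 µM; growth read once vehicle control cultures reached saturation at 30 °C; 1 = growth at the plate median or of vehicle wells; lower values mean less growth of the strain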
- Conditions used: S. cerevisiae deletion strains, growth OD, locus YPR135W, strain CTF4, hits give low values
In all, about 5,500 compounds went through this assay and about 2,000 (36%) were called active. Inconclusive results (about 18%) are left out. This is one part of the list.
# normalized growth listing for each entry below
Lab note: jot down the number only; don't add units.

As a guide, the following entries are already answered.
1) c1ccc(-c2csc(-c3ccncc3)n2)cc1 = 0.515
2) COC(=O)C/C(N)=C(\C#N)C(=O)OC = 1.08
3) OCc1ccccc1-c1ccccc1 = 0.976

Quick note, normalized growth for c1ccc(CN2CCC(n3nnc4cccnc43)CC2)cc1 landed at 1.01

Quick note, normalized growth for O=c1[nH]cnc2ccsc12 landed at 1.34

Quick note, normalized growth for N/C(=N/OC(=O)c1ccccc1)c1ccc(-c2csnn2)cc1 landed at 1.04

Quick note, normalized growth for c1ccc(-c2nc(-c3cccs3)cs2)cc1 landed at 0.341

Quick note, normalized growth for O=[N+]([O-])c1ccc(N2CCOCC2)cc1 landed at 1.02

Quick note, normalized growth for Cc1cc(=O)n(-c2ccc([N+](=O)[O-])cc2)[nH]1 landed at 0.504

Quick note, normalized growth for Cc1ccc(Sc2ccc([N+](=O)[O-])cc2/C=C2\SC(=S)NC2=O)cc1 landed at 0.553

Quick note, normalized growth for C=Cc1c(SC)sc(C(=O)O)c1C landed at 1.1

Quick note, normalized growth for Cc1cccc(C)c1N=C1SCCS1 landed at 0.887

Quick note, normalized growth for O=C(O)C1C2CCC1C(O)C2 (stereo not drawn) landed at 0.979
